# Lookup of reported Inhibition rate (1 μM) keyed by entry
test system: 20-HETE synthase originated from rat kidney microsome; assay: Inhibitory effect of 20-HETE synthase originated from rat kidney microsome; assay type: biochemical; settings: 1 μM of the subject compound; 20-HETE production without compound set to 100%
Write no unit; give the number alone.

# annotated cases, reported Inhibition rate (1 μM) shown
What value of Inhibition rate (1 μM) has been reported for the following compound? CN(C)CCOc1ccc(N/C=N/O)cc1 [Comp. 399]
102.3

Name the reported Inhibition rate (1 μM) value associated with the compound O=C1CCCN1CCCOc1ccc(N/C=N/O)cc1 [Comp. 408]
103.0

// lookup Inhibition rate (1 μM) for CCCCCCSc1ccc(N/C=N/O)cc1 [Comp. 451]
97.6

Below: the item to evaluate.
Bench note: what Inhibition rate (1 μM) did CN1CCCCC1COc1ccc(N/C=N/O)cc1 (stereo not shown) [Comp. 417] show?
102.8
